# measured.on: T1, human LILRB1 expressed on cells (human, UniProt Q8NHL6 24-650)
# T1 construct: In 293T cells it was expressed from pCMV3-LILRB1-GFP; also called CHO-LILRB1; Jurkat-LILRB1
# assay.procedure: flow cytometry, CHO-LILRB1 cells
measured.endpoint: gMFI (max)
No unit in the answer, please; the number alone is enough.

// below: answered binders
D2M002-004 (antibody, human IgG1, V domains shown, Hit; also called clone #4) VH: EVQLQQSGAELVRPGALVKLSCKASGFNIKDYYMHWVKQRPEQGLEWIGWIDPESGNTIYDPKFQGKASMTADTSSNTAYLQLSSLTSEDTAVYYCARLDGSSYYAMDYWGQGTSVTVSS VL: DILLTQSPASLAVSLGQRATISCRASESVDSYGNSFMHWYQQKPGQPPKLLIYLASNLESGVPARFSGSGSRTDFTLTIDPVEADDAATYYCQQNNEDPLTFGAGTKLELK :: 14300
#11 (antibody, human IgG1, V domains shown, also called D2M002-011) VH: EVQLQQSGAELMKPGASVKISCKATGYTFSNYWIEWVKQRPGHGLEWIGEILPGSGSTDYNEKFEGKATFTADTSSNTAYMQLSSLTSEDSAVYYCARSGAGGYDSGAFAYWGQGTLVTVSA VL: DIQMTQSPASLAVSLGQRATISCRASESVDTYGNSFMHWYQQKPGQPPKLLIYRTSNLESGIPARFSGSGSRTDFTLTINPVEADDVATYYCQQSNEDPWTFGGGTKLEIK :: 40000
#3 (antibody, human IgG1, V domains shown, also called D2M002-003) VH: QIQLLQSGPELVKPGASVKMSCKASGYTFTRYVMYWVKQKPGQGLEWIGYINPDNDGTKYNEKFKGKATLTSDKSSSTAYMELSSLTSEDSAVYYCARGDLELLPYYDYVRNAMDYWGQGTSVTVSS VL: DIQMTQSPASLSASVGETVTITCRASGNIHNYLAWYQQKQGKSPQLLVYNAKTLADGVPSRFSGSGSGTQYSLKINSLQPEDFGSYYCQHFWSTPPTFGGGTKLEIK :: 29900
#28 (antibody, human IgG1, V domains shown, also called D2M002-028) VH: EVQLQQSGAELMKPGASVKISCKATGYTFSSYWIEWVKQRPGHGLEWIGEILPGSGSTNYNEKFKGKATFTADTSSNTAYMQLSSLTSEDSAVYYCARSGAGGYDSGAFAYWGQGTLVTVSS VL: DIVMTQSPASLAVSLGQRATISCRASESVDTYGNSFMHWYQQKPGQPPKLLIYRTSNLESGIPARFSGSGSRTDFTLTINPVEADDVATYYCQQSNEDPWTFGGGTKLEIK :: 40300
D2M002-026 (antibody, V domains shown, Hit; also called clone #26) VH: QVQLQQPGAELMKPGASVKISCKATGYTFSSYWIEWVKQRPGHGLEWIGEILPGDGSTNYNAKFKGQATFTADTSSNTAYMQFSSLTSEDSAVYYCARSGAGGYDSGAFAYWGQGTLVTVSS VL: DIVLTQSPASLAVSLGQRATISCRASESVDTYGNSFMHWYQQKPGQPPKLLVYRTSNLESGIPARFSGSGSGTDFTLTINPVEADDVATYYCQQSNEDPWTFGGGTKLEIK :: 43200

Please look at the following binder next.
Suppose we examine the binder D2M002-002 (antibody, V domains shown, Hit from immunised mice; also called clone #2; anti-LILRB1/2 clone #2) VH: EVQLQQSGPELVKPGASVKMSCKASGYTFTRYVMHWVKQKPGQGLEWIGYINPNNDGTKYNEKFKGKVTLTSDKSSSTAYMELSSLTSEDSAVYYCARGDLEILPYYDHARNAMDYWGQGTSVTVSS VL: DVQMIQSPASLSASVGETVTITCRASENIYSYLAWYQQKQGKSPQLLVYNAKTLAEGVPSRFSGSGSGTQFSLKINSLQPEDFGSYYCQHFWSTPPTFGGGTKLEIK ; what gMFI (max) value has been reported?
35700
